Tested on: HCT-116 cell line
Assay: Inhibition of cell growth, tetrazolium salt (MTT) assay
Type: cell-based
Details: 0.25 μM compound; HCT-116; Table 3
Reported HCT-116 % Inhibition at 0.25 μM values for a set of compounds
Enter your answer as a number in %; do not include the unit.

# example entries with known answers
{"structure_smiles": "Nc1nc(NC2CCN(S(=O)(=O)c3c(Cl)cc(Cl)cc3Cl)CC2)sc1C(=O)c1c(F)cccc1F", "HCT-116 % Inhibition at 0.25 μM, %": 31}
{"structure_smiles": "Nc1nc(NC2CCN(S(=O)(=O)c3ccc(Cl)c([N+](=O)[O-])c3)CC2)sc1C(=O)c1c(F)cccc1F", "HCT-116 % Inhibition at 0.25 μM, %": 34}
{"structure_smiles": "Nc1nc(NC2CCN(S(=O)(=O)c3ccc(CBr)cc3)CC2)sc1C(=O)c1c(F)cccc1F", "HCT-116 % Inhibition at 0.25 μM, %": 25}
{"structure_smiles": "CCCCOc1ccc(S(=O)(=O)N2CCC(Nc3nc(N)c(C(=O)c4c(F)cccc4F)s3)CC2)cc1", "HCT-116 % Inhibition at 0.25 μM, %": 32}
{"structure_smiles": "N#Cc1ccc(S(=O)(=O)N2CCC(Nc3nc(N)c(C(=O)c4c(F)cccc4F)s3)CC2)cc1", "HCT-116 % Inhibition at 0.25 μM, %": 26}
{"structure_smiles": "COc1ccc(S(=O)(=O)N2CCC(Nc3nc(N)c(C(=O)c4c(F)cccc4F)s3)CC2)cc1OC", "HCT-116 % Inhibition at 0.25 μM, %": 35}

Field request: HCT-116 % Inhibition at 0.25 μM | item: Nc1nc(NC2CCN(S(=O)(=O)c3ccc(Cl)c4nonc34)CC2)sc1C(=O)c1c(F)cccc1F
43

Field request: HCT-116 % Inhibition at 0.25 μM | item: CC(C)c1cc(C(C)C)c(S(=O)(=O)N2CCC(Nc3nc(N)c(C(=O)c4c(F)cccc4F)s3)CC2)c(C(C)C)c1
35

Field request: HCT-116 % Inhibition at 0.25 μM | item: Nc1nc(NC2CCN(S(=O)(=O)c3ccc(F)cc3)CC2)sc1C(=O)c1c(F)cccc1F
31

###

System: HCT-116 cell line
Assay: Inhibition of cell growth, tetrazolium salt (MTT) assay
Assay type: cell-based
Details: 0.1 μM compound; HCT-116; Table 3
Values of HCT-116 % Inhibition at 0.1 μM strictly less than 10% map to criterion met, and values of at least 10% map to criterion not met.

Does the reported HCT-116 % Inhibition at 0.1 μM of CCc1cc(Br)ccc1S(=O)(=O)N1CCC(Nc2nc(N)c(C(=O)c3c(F)cccc3F)s2)CC1 [Example P78] stay below 10%?
criterion not met

Does the reported HCT-116 % Inhibition at 0.1 μM of Cc1ccc2cc(S(=O)(=O)N3CCC(Nc4nc(N)c(C(=O)c5c(F)cccc5F)s4)CC3)ccc2c1 [Example P88] stay below 10%?
criterion met

###

Reported pKi values for a set of compounds
Target: CDK2/Cyclin A (Homo sapiens)
Assay: Inhibition of CDK2/Cyclin A Retinoblastoma Kinase Activity
Conditions: apparent Ki, CDK2/proteolyzed cyclin A, Rb fragment substrate, 25 μM ATP
Where a name gives a salt, the structure may show the parent alone.
pKi field: float, defined as -log10 of concentration (mol/L).

# example entries with known answers
{"compound": "COC(=O)CCc1ccc(S(=O)(=O)N2CCC(Nc3nc(N)c(C(=O)c4c(F)cccc4F)s3)CC2)cc1", "experimental_target": "CDK2/Cyclin A (Homo sapiens)", "pKi": 9.10}
{"compound": "Nc1nc(NC2CCN(S(=O)(=O)c3ccc(OCCNC4CC4)nc3)CC2)sc1C(=O)c1c(F)cccc1F [Example H21, Hydrochloride Salt]", "experimental_target": "CDK2/Cyclin A (Homo sapiens)", "pKi": 8.82}
{"compound": "Nc1nc(NC2CCN(S(=O)(=O)Cc3ccccc3)CC2)sc1C(=O)c1c(F)cccc1F", "experimental_target": "CDK2/Cyclin A (Homo sapiens)", "pKi": 8.39}
{"compound": "CN1CC[C@H](c2ccc(S(=O)(=O)N3CCC(Nc4nc(N)c(C(=O)c5c(F)cccc5F)s4)CC3)cc2)C1", "experimental_target": "CDK2/Cyclin A (Homo sapiens)", "pKi": 9.00}
{"compound": "Nc1nc(NC2CCN(S(=O)(=O)CCCNCc3ccccc3F)CC2)sc1C(=O)c1c(F)cccc1F", "experimental_target": "CDK2/Cyclin A (Homo sapiens)", "pKi": 8.40}

Field request: pKi | item: CN1CCN(c2ccc(S(=O)(=O)N3CCC(Nc4nc(N)c(C(=O)c5c(F)cccc5F)s4)CC3)cn2)CC1
8.89

Field request: pKi | item: CN1CC[C@@H](Oc2ccc(S(=O)(=O)N3CCC(Nc4nc(N)c(C(=O)c5c(F)cccc5F)s4)CC3)cn2)C1 [Example H27, Hydrochloride]
9.46

Field request: pKi | item: Nc1nc(NC2CCN(S(=O)(=O)c3cncc(Cl)n3)CC2)sc1C(=O)c1c(F)cccc1F
9.34

Field request: pKi | item: Cc1c[nH]c(-c2ccc(S(=O)(=O)N3CCC(Nc4nc(N)c(C(=O)c5c(F)cccc5F)s4)CC3)cn2)n1 [Example I2, Hydrochloride]
9.39

Field request: pKi | item: CC1(C)CN(c2ccc(S(=O)(=O)N3CCC(Nc4nc(N)c(C(=O)c5c(F)cccc5F)s4)CC3)cn2)CCN1
9.18

Field request: pKi | item: CCN(CC)CCOc1ccc(S(=O)(=O)N2CCC(Nc3nc(N)c(C(=O)c4c(F)cccc4F)s3)CC2)cn1 [Example H18, Trifluoroacetic Acid Salt]
8.80
